ASSAYED TARGET: human muscarinic receptor subtype M4 (Homo sapiens)
Sequence (P08173 whole entry): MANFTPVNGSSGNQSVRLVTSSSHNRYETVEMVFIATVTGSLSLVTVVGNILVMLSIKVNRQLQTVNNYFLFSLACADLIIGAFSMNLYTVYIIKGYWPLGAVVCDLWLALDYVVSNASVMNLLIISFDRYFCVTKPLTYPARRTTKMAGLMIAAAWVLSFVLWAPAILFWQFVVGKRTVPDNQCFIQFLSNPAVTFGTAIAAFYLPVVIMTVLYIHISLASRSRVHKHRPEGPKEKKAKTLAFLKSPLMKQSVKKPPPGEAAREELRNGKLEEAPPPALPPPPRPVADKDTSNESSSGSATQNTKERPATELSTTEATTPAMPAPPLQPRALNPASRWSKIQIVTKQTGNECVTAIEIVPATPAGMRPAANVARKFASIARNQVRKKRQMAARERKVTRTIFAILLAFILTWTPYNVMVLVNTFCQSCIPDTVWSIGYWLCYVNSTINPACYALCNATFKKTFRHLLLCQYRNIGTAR
MEASUREMENT NOTES: Muscarinic receptor binding, displacement of [3H]-NMS, membranes from transfected CHO cells
Recorded measurements of pIC50, one per entry
Convention used: pIC50 is expressed as -log10 of the molar concentration.

CCOC(=O)c1c(C)n(CC)c2ccc3c(c12)CN1CCc2cc(OC)ccc2C1O3 (centres unmarked) [Prior Art Compound Et/Me/9-OMe/Et, reference compound]    7.30

Give the reported pIC50 for this molecule. CCOC(=O)c1c(CC)n(CC)c2ccc3c(c12)CN1CCc2cc(OC)ccc2C1O3 (centres unmarked) [Prior Art Compound Et/Et/9-OMe/Et, reference compound]
7.70

###

As shown below, each of these compounds has a reported melting point value.

Some entries whose results are on file:
CCCc1[nH]c2ccc3c(c2c1C(=O)OCC)CN1CCc2cc(SC)ccc2C1O3 (stereo not shown)    185 to 186 °C
CCCCCCc1[nH]c2ccc3c(c2c1C(=O)OCC)CN1CCc2cc(OC)ccc2C1O3 (stereo not shown)    157 to 160 °C
CCCc1c(C(=O)OCC)c2c3c(ccc2n1C)OC1c2ccc(SC)cc2CCN1C3 (stereo not shown)    139 to 143 °C

Below: the item to evaluate.
Give the measured melting point for CCCCc1[nH]c2ccc3c(c2c1C(=O)OCC)CN1CCc2cc(SC)ccc2C1O3 (stereo not shown)
159 to 161 °C

###

ASSAYED TARGET: UniProtKB P11229
Sequence (P11229 whole entry): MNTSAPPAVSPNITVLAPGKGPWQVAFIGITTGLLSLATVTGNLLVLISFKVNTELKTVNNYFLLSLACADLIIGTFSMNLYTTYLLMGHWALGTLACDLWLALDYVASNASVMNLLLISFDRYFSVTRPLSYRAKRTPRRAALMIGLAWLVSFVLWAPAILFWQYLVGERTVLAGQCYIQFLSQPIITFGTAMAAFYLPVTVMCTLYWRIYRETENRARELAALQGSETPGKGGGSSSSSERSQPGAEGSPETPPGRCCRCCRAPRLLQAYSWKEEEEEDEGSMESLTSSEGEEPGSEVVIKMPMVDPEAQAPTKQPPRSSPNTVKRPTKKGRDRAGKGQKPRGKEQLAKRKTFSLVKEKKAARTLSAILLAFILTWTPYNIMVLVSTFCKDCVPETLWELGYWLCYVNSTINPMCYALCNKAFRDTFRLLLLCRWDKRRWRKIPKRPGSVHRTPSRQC
MEASUREMENT NOTES: Muscarinic receptor binding, displacement of [3H]-NMS, membranes from transfected CHO cells
COND: [3H]-NMS displacement, CHO cell membranes; tested two to four times, SEM <=10%; read-out: Muscarinic Binding Activity M1 (IC50)
Method: The compounds were evaluated in standard assays used to measure muscarinic receptor binding, and they were compared with other benzoxazines described in Bioorganic & Medicinal Chemistry Letters 8, 1998:1991-1996, which is incorporated herein by reference. Specifically, the compounds were evaluated for their binding affinity toward five human muscarinic receptor subtypes (M1-M5) by the method of Dorje et al., J. Pharm. Exp. Ther. 1991;256:727-733, which is incorporated herein by reference. […]
Known IC50 of a selection of molecules
Only the number, expressed in nM, is required.

Examples from the recorded data:
CCCCc1[nH]c2ccc3c(c2c1C(=O)OCC)CN1CCc2cc(OC)ccc2C1O3 (stereo not shown)    800
CCOC(=O)c1c(C)[nH]c2ccc3c(c12)CN1CCc2cc(OC)ccc2C1O3 (stereo not shown) [Prior Art Compound Et/Me/9-OMe/H, reference compound]    3000
CCOC(=O)c1c(CC)[nH]c2ccc3c(c12)CN1CCc2cc(OC)ccc2C1O3 (stereo not shown) [Prior Art Compound Et/Et/9-OMe/H, reference compound]    2000

Moving on to the next molecule.
// Input: CCCc1c(C(=O)OCC)c2c3c(ccc2n1C)OC1c2ccc(OC)cc2CCN1C3 (stereo not shown) . Output its IC50 only.
3000

###

ASSAYED TARGET: human muscarinic receptor subtype M5 (Homo sapiens)
Sequence (P08912 whole entry): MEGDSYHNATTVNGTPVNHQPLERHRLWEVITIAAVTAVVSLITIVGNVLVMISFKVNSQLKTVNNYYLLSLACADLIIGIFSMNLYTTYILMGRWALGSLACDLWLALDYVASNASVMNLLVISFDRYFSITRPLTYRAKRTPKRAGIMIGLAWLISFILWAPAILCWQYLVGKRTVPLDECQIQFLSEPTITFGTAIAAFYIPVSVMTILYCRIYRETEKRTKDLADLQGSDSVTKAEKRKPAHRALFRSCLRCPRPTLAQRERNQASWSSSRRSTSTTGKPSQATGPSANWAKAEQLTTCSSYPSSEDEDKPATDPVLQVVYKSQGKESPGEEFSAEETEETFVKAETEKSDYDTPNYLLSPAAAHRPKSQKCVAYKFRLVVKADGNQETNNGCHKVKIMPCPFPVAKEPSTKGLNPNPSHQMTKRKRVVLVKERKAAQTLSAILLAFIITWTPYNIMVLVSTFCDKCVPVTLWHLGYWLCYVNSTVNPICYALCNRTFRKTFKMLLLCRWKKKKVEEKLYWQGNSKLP
MEASUREMENT NOTES: Muscarinic receptor binding, displacement of [3H]-NMS, membranes from transfected CHO cells
ENDPOINT: IC50 (µM)
Kindly provide the numeric value in µM only, without the unit symbol.

CCOC(=O)c1c(CC)n(CC)c2ccc3c(c12)CN1CCc2cc(OC)ccc2C1O3 (centres unmarked) [Prior Art Compound Et/Et/9-OMe/Et, reference compound]    5

// Input: CCOC(=O)c1c(C)n(CC)c2ccc3c(c12)CN1CCc2cc(OC)ccc2C1O3 (centres unmarked) [Prior Art Compound Et/Me/9-OMe/Et, reference compound] . Output its IC50 only.
3
